tested on: Cryptococcus neoformans; experiment: Antifungal activity against Cryptococcus neoformans H99 after 48 hrs by growth curve assay; assay type: functional; settings: var grubii H99 
parameter measured: MIC80
Don't forget the unit after the number, please.

# returns recorded MIC80 (system: Cryptococcus neoformans) for Clc1ccc(OCCCn2c3c(c4ccccc42)CCNC3)cc1.O=C(O)C(F)(F)F
4 µg/mL

Notebook entry, Cryptococcus neoformans assay: MIC80 of COc1ccc(OCCCn2c3c(c4ccccc42)CCNC3)cc1.O=C(O)C(F)(F)F = ?
16 µg/mL

Which measured MIC80 belongs to Clc1ccc(OCCCn2c3c(c4cc(Br)ccc42)CCNC3)cc1.O=C(O)C(F)(F)F , tested on Cryptococcus neoformans?
0.5 µg/mL

Find MIC80 (Cryptococcus neoformans) for the entry CCN(CC)CCCn1c2c(c3ccccc31)CCNC2
64 µg/mL

Item Clc1ccc(OCCCn2c3c(c4c(Br)cccc42)CCNC3)cc1.O=C(O)C(F)(F)F with Cryptococcus neoformans - MIC80?
8 µg/mL

What measured MIC80 is associated with OC(Cn1cncn1)(Cn1cncn1)c1ccc(F)cc1F on Cryptococcus neoformans?
4 µg/mL

Lab note: need MIC80 for Fc1cccc(NCCCn2c3c(c4ccccc42)CCNC3)c1.O=C(O)C(F)(F)F on Cryptococcus neoformans, anyone have it?
16 µg/mL

Request - read-out MIC80 | tested on Cryptococcus neoformans | compound C1=CCN(CCCn2c3c(c4ccccc42)CCNC3)C1
64 µg/mL

What reported MIC80 corresponds to COc1ccccc1OCCCn1c2c(c3ccccc31)CCNC2.O=C(O)C(F)(F)F on Cryptococcus neoformans?
32 µg/mL

Can you look up MIC80 on Cryptococcus neoformans for Fc1ccc(NCCCn2c3c(c4ccccc42)CCNC3)cc1.O=C(O)C(F)(F)F ?
16 µg/mL

For Cryptococcus neoformans, provide MIC80 of COc1ccc(N2CCN(CCCn3c4c(c5ccccc53)CCNC4)CC2)cc1 please.
64 µg/mL

Hello, I am looking for reported MIC80 with Cryptococcus neoformans for c1ccc(CN2CCN(CCCn3c4c(c5ccccc53)CCNC4)CC2)cc1 . Could you help?
32 µg/mL

Quick check: MIC80 on Cryptococcus neoformans, item Clc1ccc(OCCCn2c3c(c4cc(Cl)ccc42)CCNC3)cc1.O=C(O)C(F)(F)F ?
0.25 µg/mL

Param readout= MIC80; system= Cryptococcus neoformans; entry= Clc1cccc(NCCCn2c3c(c4ccccc42)CCNC3)c1.O=C(O)C(F)(F)F ; returns value.
8 µg/mL

// fetch Cryptococcus neoformans MIC80 for c1ccc2c(c1)c1c(n2CCN2CCOCC2)CNCC1
64 µg/mL

Please provide the recorded MIC80 for COc1cccc2c3c(n(CCCOc4ccc(Cl)cc4)c12)CNCC3.O=C(O)C(F)(F)F , tested on Cryptococcus neoformans.
4 µg/mL
